Attribute: growth
- System: DU-145 prostate
- EXPERIMENTAL_PROTOCOL: NCI-60 one-dose screen, 48 h (100 = growth as untreated, 0 = no growth, -100 = all killed)
- RUN_CONDITIONS: 10 µM unless noted
Compounds without any hit were thinned out: in the full panel of roughly 83,000, 20% have a hit.
Express it in %; write the number only.

Please review the entries below; each comes with its answer.
Cc1ccc(O)c(NC(=O)c2cccc(Nc3ccnc(C(F)(F)F)c3)c2)c1 | 80.9
O=C(Nc1ccc(Nc2ccncc2)cc1)c1ccc(Nc2ccnc3ccc([N+](=O)[O-])cc23)cc1 | 103
COc1ccccc1S(=O)(=O)Nc1ccc2c3c(cc(CCC(=O)NCCCCNc4cccc5c4C(=O)N(C4CCC(=O)NC4=O)C5=O)cc13)C(=O)N2C (stereo unspecified) | 75.9
CC(C)NS(=O)(=O)/N=C1\NC(=O)NC1=C(Cl)Cl | 104
c1ccc(-c2ccc3c(c2)C2(CCNCC2)CN3)cc1 | 99

Find the recorded growth belonging to `C=C1C(=O)O[C@H]2[C@H]1CC/C(COC(=O)/C=C\C(=O)NCc1ccc(Cn3c(=O)sn(CCCCl)c3=O)cc1)=C\CC[C@@]1(C)O[C@@H]21` and report it. 45.9

====

- System: SR leukemia
- EXPERIMENTAL_PROTOCOL: NCI-60 one-dose screen, 48 h
- RUN_CONDITIONS: 10 µM unless noted
Compounds without any hit were thinned out: in the full panel of roughly 83,000, 20% have a hit. Calls of active or inactive are those of the source. Rule for the calls: active = growth percent below 10; inactive = the rest.
Your reply should match one of these outcome classes. true (1) (active), false (0) (inactive)

// below: answered compounds
CC(C)=CC(=O)N[C@H]1CC[C@]2(C)C3CC[C@]4(C)C(C(C)N(C)C)=CCC4C3CCC2[C@H]1O (stereo not given in full) | false (0)
Cn1cc(-c2csc(-c3cn(C)c4ccccc34)n2)c2cnccc21 | true (1)
CCOC(=O)CC[C@H](NC(=O)c1ccc(N(C)Cc2cnc3nc(N)nc(N)c3n2)c2ccccc12)C(=O)OCC | false (0)

Would you mind telling me which call this test gave `c1ccc(Cn2cc3c(c2-c2ccccc2)CCc2cnoc2-3)cc1` ? false (0)

Would you mind telling me which call this test gave `O=C(Cc1ccc(/C=C/C(=O)c2ncc[nH]2)cc1)Nc1cc(F)c(F)c(F)c1` ? false (0)

====

- Test system: RPMI-8226 leukemia
- EXPERIMENTAL_PROTOCOL: NCI-60 one-dose screen, 48 h (100 = growth as untreated, 0 = no growth, -100 = all killed)
- RUN_CONDITIONS: 10 µM unless noted
This is part of a sample that, as a whole, favours compounds with a hit. Of some 83,000 tested, about 20% had one in any assay.
Rule: growth below 50% gives Satisfied, anything at or above gives Not satisfied.

// below: answered molecules
COc1ccc(N=C2NN=C(c3c[nH]c4ccccc34)CS2)cc1OC | Satisfied
O=C(O)c1cn(C2CC2)c2cc(N3CCN(C(=O)N4CCOCC4)CC3)c(F)cc2c1=O | Not satisfied
O=C1/C(=C/c2ccc(Cl)cc2)CN(C(=O)C(Cl)Cl)C/C1=C\c1ccc(Cl)cc1 | Satisfied
COc1cc2c(c(OC)c1OC)C(=O)CC(c1cccc(C(=O)Nc3ccccc3Br)c1)O2 (centres undefined) | Not satisfied
Cc1cccc(N2C(=O)/C(=C/C(Cl)=C/c3ccc([N+](=O)[O-])cc3)SC2=S)c1C | Satisfied
Cc1cc(=O)oc2cc(Oc3nc(Br)cn4c(Br)cnc34)ccc12 | Not satisfied
Cn1c(C#N)ccc1-c1ccc(F)c(NC(=O)c2ccc(F)cc2)c1 | Not satisfied
CCN(CC)CCn1c2ccc(OC)cc2c2sc3cc(O)ccc3c(=O)c21 | Satisfied

Please find the next molecule below.
growth under 50%? Item: N#Cc1ccc(O)c(C2=NCC(c3ccc(-c4ccccc4)cc3)O2)c1 (centres undefined) Satisfied

====

- System: U251 CNS
- EXPERIMENTAL_PROTOCOL: NCI-60 one-dose screen, 48 h
- RUN_CONDITIONS: 10 µM unless noted
This is part of a sample that, as a whole, favours compounds with a hit. Of some 83,000 tested, about 20% had one in any assay. Active and inactive are the calls of the source. The calls were made as follows: active = growth percent below 10; inactive = the rest.
Your reply should match one of these outcome classes. true for active, false for inactive

// below: answered molecules
C[C@@H]1CN(c2cnc(C(=O)Nc3cc(F)cc4cccnc34)cn2)C[C@H](C)N1 | false
COc1ccc(/C=C(/C(=O)N2CCNCC2)c2cc(OC)c(OC)c(OC)c2)cc1O | false
CC(C)(Sc1cc(C(C)(C)C)c(O)c(C(C)(C)C)c1)Sc1cc(C(C)(C)C)c(OC(=O)CCC(=O)O)c(C(C)(C)C)c1 | false
O=C(Cc1ccc(/C=C/C(=O)c2ncc[nH]2)cc1)Nc1cc(F)c(F)c(F)c1 | true
COc1cccc(-c2cn3nc(-c4cn(C)c5ccccc45)sc3n2)c1 | false

Would you mind telling me which call this test gave `CC(=O)c1sc(-c2ccc(F)cc2)cc1O` ? false

Would you mind telling me which call this test gave CCCC(O)Cn1ncc(C(=O)OCC)c1NC(=O)NCc1cccc(C(F)(F)F)c1 (stereo unspecified) ? false

Would you mind telling me which call this test gave `COc1cc(/C=C/C(=O)c2cc(OC)c(OC)c(OC)c2)ccc1Oc1nc2c(c(=O)n(C)c(=O)n2C)n1C` ? true

Would you mind telling me which call this test gave `CCOC(=O)c1nnn(Cc2cc(=O)oc3ccc(O)cc23)c1C` ? false

Would you mind telling me which call this test gave `COc1ccc2cc(C(=O)N3CCC([C@@H](C)C(=O)NCc4ccc5c(c4)OCO5)CC3)[nH]c2c1` ? false

====

- Test system: NCI-H226 lung
- EXPERIMENTAL_PROTOCOL: NCI-60 one-dose screen, 48 h (100 = growth as untreated, 0 = no growth, -100 = all killed)
- RUN_CONDITIONS: 10 µM unless noted
This is part of a sample that, as a whole, favours compounds with a hit. Of some 83,000 tested, about 20% had one in any assay. Calls of active or inactive are those of the source. Rule for the calls: active = growth percent below 10; inactive = the rest.
Attribute: growth

Please review the entries below; each comes with its answer.
C=C(c1ccc(C(=O)O)c(F)c1)c1cc2c(cc1C)C(C)(C)CCC2(C)C | 82.6% (inactive)
Cc1cccc(NC(=O)N/C(N)=N/c2nc3ccccc3s2)c1 | 53.7% (inactive)
NS(=O)(=O)c1ccc(C(=O)NN2C(=O)c3ccccc3C2=O)cc1 | 111% (inactive)
CCCOC(=O)Nc1nc2ccc(SCC)cc2s1 | 92.9% (inactive)

Now for another entry.
What reported growth corresponds to O=C(CN1C(=O)S/C(=C\C(Cl)=C\c2ccccc2)C1=O)NC1CCS(=O)(=O)C1 (stereo not given) on NCI-H226 lung? 77.3% (inactive)

====

- System: A549/ATCC NSCLC
- EXPERIMENTAL_PROTOCOL: NCI-60 one-dose screen, 48 h
- RUN_CONDITIONS: 10 µM unless noted
This is part of a sample that, as a whole, favours compounds with a hit. Of some 83,000 tested, about 20% had one in any assay. Calls of active or inactive are those of the source. The calls were made as follows: active = growth percent below 10; inactive = the rest.
Your reply should match one of these outcome classes. active, inactive

// below: answered compounds
Nc1c(C(=O)Nc2cccc3ncccc23)sc2nc3c(cc12)CN(Cc1ccccc1)CC3 | inactive
COc1ccc(Nc2ncc(C#N)c(NCCCNC(=O)C3CCC3)n2)cc1 | inactive
COc1cc2c(cc1-c1c(C)noc1C)ncc1nc(CN3CCOCC3)n([C@H](C)COC(F)F)c12 | inactive
COc1ccc(-c2nc(SCC(=O)Nc3nc4ccc(C)cc4s3)[nH]c(=O)c2C#N)cc1OC | inactive
CCCCCc1ccc(S(=O)(=O)Nc2ccc3nc(N)oc3c2)cc1 | inactive
COc1ccc2[nH]cc(-c3nonc3-c3c[nH]c4ccc(Br)cc34)c2c1 | inactive

Would you mind telling me which call this test gave `CSc1nc(-c2ccco2)c(C#N)c(=O)n1C` ? inactive

Would you mind telling me which call this test gave `O=[N+]([O-])c1ccccc1Nc1ccc2ccccc2c1` ? inactive

Would you mind telling me which call this test gave `Cc1ccc2c(/C=C/C(=O)c3cc(CN4CCOCC4)c(O)c4nc(C)ccc34)cc(CN3CCOCC3)c(O)c2n1` ? inactive

====

- Test system: 786-0 renal
- EXPERIMENTAL_PROTOCOL: NCI-60 one-dose screen, 48 h (100 = growth as untreated, 0 = no growth, -100 = all killed)
- RUN_CONDITIONS: 10 µM unless noted
- Method: Cells are grown in 96 well plates and exposed to the test compound for 48 hours. Compounds are tested at a single concentration, which is 10^-5 M for most compounds. The reported endpoint is percent growth (GI% or GIPRCNT), where numbers from 0 - 100% represent growth inhibition, and numbers from -100% - 0 represent cell death. For example, a value of 40 represents 60% growth inhibition. A value of 0 means no net growth occurred over the course of the experiment. […]
Compounds without any hit were thinned out: in the full panel of roughly 83,000, 20% have a hit.
MEASURED_QUANTITY: growth (%)
Express it in %; write the number only.

Please review the entries below; each comes with its answer.
O=C(N/N=C/c1ccc(Cl)cc1)c1ccc(NC(=O)c2ccccn2)cc1 | 4.44
COC(=O)/C=C1/SC(=Nc2ccc(F)cc2)N(CCc2c[nH]c3ccc(O)cc23)C1=O | 40.6
C(=C(\C1=NCCN1)n1ccc2ccccc21)/c1ccccc1 | 98.3
CN(C)/C(N)=N/N=C(\c1ccccc1)c1ccccn1 | 99.9

Find the recorded growth belonging to `COC(=O)[C@@]12CC=C(C)[C@]3(C[C@H](c4ccoc4)OC3=O)[C@H]1C=C[C@@H](O)[C@@]2(O)C(=O)OC` and report it. 97.4

Find the recorded growth belonging to `COc1cc(/C=C/C(=O)N2CCN(C(=O)c3cc(OC)c(OC)c(OC)c3)CC2)ccc1OCCCOc1cc2c(cc1OC)C(=O)N1CCC[C@H]1C=N2` and report it. 11.7

Find the recorded growth belonging to `NCCCNc1nc2ccccc2c2c(=O)c3cc(Cl)ccc3sc12` and report it. 2.76

Find the recorded growth belonging to CCCC(=O)NC(c1ccc2c(c1)OCO2)c1cc(Cl)c2cccnc2c1O (centres undefined) and report it. 32.4

Find the recorded growth belonging to `Nc1nc(C(=O)N/N=C/c2ccc(F)cc2)nn1-c1ccc(S(N)(=O)=O)cc1` and report it. 97.2

Origin of values: PubChem BioAssay (NCI)
